Cited source for all entries: paper PMC9289130

# assayName: Pharmacokinetic study in control and DSS-induced UC rats after oral administration of LXF (serum, UPLC-MS/MS)
# Assay type: in vivo, Sprague-Dawley (SD) rats
# experimentalSetup: male, Sprague-Dawley, rat, serum, po, 3.3 g/kg, UC group (4% DSS for 7 days); oral LXF 3.30 g/kg; rat serum; n = 8; mean ± SD
resultType: AUC(0-t) (ng·h/mL)

These solved cases illustrate the format of a correct answer.
# compound, AUC(0-t) / ng·h/mL
records = [
    ("COc1c(O)c(=O)n2c3ccccc3c3ccnc1c32 [4-methoxy-5-hydroxy-canthin-6-one]", 759),
    ("COC(=O)c1nccc2c1[nH]c1ccccc12 [1-methoxicabony-β-carboline]", 424),
]

P: C=C1CC[C@@H]2[C@](C)(CO)[C@H](O)CC[C@@]2(C)[C@@H]1C/C=C1/C(=O)OC[C@H]1O [andrographolide]
Q: C=C1CC[C@@H]2[C@](C)(CO)[C@H](O)CC[C@@]2(C)[C@H]1C/C=C1\C=COC1=O [dehydroandrographolide]
Between P and Q , whose measured AUC(0-t) reads higher? Answer by stating the label of the chosen item.
P
(P: 15900 ng·h/mL, Q: 4690 ng·h/mL)

====

# assayName: Stability test of QC samples in rat serum
# Format: in vitro ADME
# experimentalSetup: three freeze-thaw, middle QC (nominal 384.38 / 150.00 / 43.20 / 39.38 ng/ml for compounds 1-4), n = 6
resultType: Stability, mean concentration found (ng/mL)

# compound, unitSymbol, readoutValue
data = [
    ("COc1c(O)c(=O)n2c3ccccc3c3ccnc1c32 [4-methoxy-5-hydroxy-canthin-6-one]", "ng/mL", 41.43),
]

A: C=C1CC[C@@H]2[C@](C)(CO)[C@H](O)CC[C@@]2(C)[C@H]1C/C=C1\C=COC1=O [dehydroandrographolide]
B: COC(=O)c1nccc2c1[nH]c1ccccc12
C: C=C1CC[C@@H]2[C@](C)(CO)[C@H](O)CC[C@@]2(C)[C@@H]1C/C=C1/C(=O)OC[C@H]1O [andrographolide]
List from greatest to least Stability, mean concentration found. I'd appreciate it if you listed the labels in the requested order.
C, A, B
(C: 396.68 ng/mL, A: 143.60 ng/mL, B: 42.04 ng/mL)

====

# assayName: Pharmacokinetic study in control and DSS-induced UC rats after oral administration of LXF (serum, UPLC-MS/MS)
# Assay type: in vivo, Sprague-Dawley (SD) rats
# experimentalSetup: male, Sprague-Dawley, rat, serum, po, 3.3 g/kg, control group; oral LXF 3.30 g/kg; rat serum; n = 8; mean ± SD
# Procedure: Sixteen male Sprague-Dawley (SD) rats (220 ± 10 g) were provided from the Liaoning Changsheng Biotechnology Co., Ltd (Benxi, China; with license No. of SCXK, 2020-0001). The rats were kept in an environment (22 ± 2°C, relative humidity 50 ± 5%) under a 12-h light-dark cycle with a free diet and water for 3 days. […] Quantification was performed using multiple reaction monitoring (MRM) in the positive ionization mode, and the optimized MRM parameters of the four analytes and IS are listed in Table 1. […]
resultType: Tmax (min)

# compound, readoutValue
data = [
    ("C=C1CC[C@@H]2[C@](C)(CO)[C@H](O)CC[C@@]2(C)[C@@H]1C/C=C1/C(=O)OC[C@H]1O [andrographolide]", 31.8),
]

I: COc1c(O)c(=O)n2c3ccccc3c3ccnc1c32 [4-methoxy-5-hydroxy-canthin-6-one]
II: COC(=O)c1nccc2c1[nH]c1ccccc12
III: C=C1CC[C@@H]2[C@](C)(CO)[C@H](O)CC[C@@]2(C)[C@H]1C/C=C1\C=COC1=O [dehydroandrographolide]
Reorder: Tmax, max to min. Provide the ranking by listing each label in its place in the requested order.
II, III, I
(II: 41.4 min, III: 16.8 min, I: 4.8 min)
